molecular target: T1, HLA-A2/E7 (11-19) tetramer (human; HPV 16); assay: tetramer flow cytometry; transfected 1:1 CD4+ and CD4+/CD8+ Jurkat-derived cells;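 further: cells transiently transfected with TCR plasmids, stained 48 h later with HLA-A*02:01 peptide-MHC tetramer plus anti-CD8 antibody, read by flow cytometry to assess CD8-independent tetramer binding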
T1 construct: also called E7(11-19) peptide-MHC tetramer; E7 (11-19)-loaded tetramer
Measured % cells in E7 tet-/CD8- quadrant, listed per entry.

{"columns": ["binder", "unitLabel", "% cells in E7 tet-/CD8- quadrant"],
 "data": [
  ["TCR 34 (codon optimized, cysteine modified version) (TCR, V domains shown) V domain 1: ELKVEQNPLFLSMQEGKNYTIYCNYSTTSDRLYWYRQDPGKSLESLFVLLSNGAVKQEGRLMASLDTKARLSTLHITAAVHDLSATYFCAVSGTYKYIFGTGTRLKVLA V domain 2: ETGVTQSPTHLIKTRGQQVTLRCSSQSGHNTVSWYQQALGQGPQFIFQYYREEENGRGNFPPRFSGLQFPNYSSELNVNALELDDSALYLCASSSYAGSYEQYFGPGTRLTVTE", "%", 40.9],
  ["TCR 31 (codon optimized, cysteine modified version) (TCR, V domains shown) V domain 1: DQQVKQNSPSLSVQEGRISILNCDYTNSMFDYFLWYKKYPAEGPTFLISISSIKDKNEDGRFTVFLNKSAKHLSLHIVPSQPGDSAVYFCAASERGTYKYIFGTGTRLKVLA V domain 2: GAGVSQSPSNKVTEKGKDVELRCDPISGHTALYWYRQSLGQGLEFLIYFQGNSAPDKSGLPSDRFSAERTGGSVSTLTIQRTQQEDSAVYLCASSRFLGSTDTQYFGPGTRLTVLE", "%", 74.3],
  ["TCR 53 (codon optimized, cysteine modified version) (TCR, V domains shown) V domain 1: AQSVAQPEDQVNVAEGNPLTVKCTYSVSGNPYLFWYVQYPNRGLQFLLKYITGDNLVKGSYGFEAEFNKSQTSFHLKKPSALVSDSALYFCAVRDFGSGTYKYIFG V domain 2: GAGVSQSPRYKVTKRGQDVALRCDPISGHVSLYWYRQALGQGPEFLTYFNYEAQQDKSGLPNDRFSAERPEGSISTLTIQRTEQRDSAMYRCASSGSGTSGYNEQFFGPGTRLTVLE", "%", 67.5],
  ["TCR 33 (codon optimized, cysteine modified version) (TCR, V domains shown) V domain 1: QKEVEQNSGPLSVPEGAIASLNCTYSDRGSQSFFWYRQYSGKSPELIMFIYSNGDKEDGRFTAQLNKASQYVSLLIRDSQPSDSATYLCAVNAHHTGGFKTIFGAGTRLFVKA V domain 2: EPEVTQTPSHQVTQMGQEVILRCVPISNHLYFYWYRQILGQKVEFLVSFYNNEISEKSEIFDDQFSVERPDGSNFTLKIRSTKLEDSAMYFCASTPRDTYEQYFGPGTRLTVTE", "%", 50.6],
  ["TCR 42 (codon optimized, cysteine modified version) (TCR, V domains shown) V domain 1: GQQVMQIPQYQHVQEGEDFTTYCNSSTTLSNIQWYKQRPGGHPVFLIQLVKSGEVKKQKRLTFQFGEAKKNSSLHITATQTTDVGTYFCAGPDNFNKFYFGSGTKLNVKP V domain 2: EPEVTQTPSHQVTQMGQEVILRCVPISNHLYFYWYRQILGQKVEFLVSFYNNEISEKSEIFDDQFSVERPDGSNFTLKIRSTKLEDSAMYFCAKTSRSSYEQYFGPGTRLTVTE", "%", 57.4]
]}
